Origin of measurements: the supplement of paper PMC5908809

- Test system: normal primary NK cells, pool 1 (3 donors), resting (IL-2 0 ng/mL)
- Test Description: percent inhibition of viability; higher = more inhibition
- Stated Conditions: 72 h; 100 nM
Observable: percent inhibition of viability (%)
Numeric answer only, unit % assumed.

Worked examples, 2 compounds total:
{"columns": ["Compound", "Unit Name", "Observed"],
 "data": [
  ["C[C@]12O[C@H](C[C@]1(O)CO)n1c3ccccc3c3c4c(c5c6ccccc6n2c5c31)CNC4=O [Lestaurtinib] (max concentration tested 1000 nM)", "%", 26],
  ["CCn1c(C(=O)N(C2CC2)C2CC2)cc2c3c(ncn3C)c(Nc3cc(C)n(C)n3)nc21 (max concentration tested 10000 nM)", "%", -10.8]
]}

For the compound CCC(C)(C)C(=O)O[C@H]1C[C@@H](C)C=C2C=C[C@H](C)[C@H](CC[C@@H]3C[C@@H](O)CC(=O)O3)[C@H]21 [Simvastatin] (max concentration tested 10000 nM) , what percent inhibition of viability is on record?
-12.8

May I ask what percent inhibition of viability has been recorded for Cn1cc(C2=C(c3cn(C4CCN(Cc5ccccn5)CC4)c4ccccc34)C(=O)NC2=O)c2ccccc21 [Enzastaurin] (max concentration tested 10000 nM) ?
-6.91

====

- Tested on: NKL (IL-2 2.5 ng/mL)
- Test Description: percent inhibition of viability; higher = more inhibition
- Stated Conditions: 72 h; 10 nM
Collected percent inhibition of viability values appear next to each entry.
Put down the number, then write its unit next to it.

Recorded results for 5 molecules are shown here.
{"columns": ["Molecule", "percent inhibition of viability"],
 "data": [
  ["N#CCNC(=O)c1ccc(-c2ccnc(Nc3ccc(N4CCOCC4)cc3)n2)cc1 [Momelotinib] (max concentration tested 10000 nM)", "-2.44%"],
  ["Nc1nc(Cl)nc2c1ncn2[C@@H]1O[C@H](CO)[C@@H](O)[C@@H]1F [Clofarabine] (max concentration tested 10000 nM)", "-3.55%"],
  ["C[C@@H]1C[C@H]2[C@@H]3CCC4=CC(=O)C=C[C@]4(C)[C@@]3(F)[C@@H](O)C[C@]2(C)[C@@]1(O)C(=O)CO [Dexamethasone] (max concentration tested 10000 nM)", "38.1%"],
  ["COc1nc(N)nc2c1ncn2[C@@H]1O[C@H](CO)[C@@H](O)[C@@H]1O [Nelarabine] (max concentration tested 10000 nM)", "8.18%"],
  ["Cn1cc(C2=C(c3cn(C4CCN(Cc5ccccn5)CC4)c4ccccc34)C(=O)NC2=O)c2ccccc21 [Enzastaurin] (max concentration tested 10000 nM)", "-1.53%"]
]}

Turning now to a further molecule:
Which value of percent inhibition of viability has been reported for Cc1cc2c(F)c(Oc3ncnn4cc(OC[C@@H](C)O)c(C)c34)ccc2[nH]1 [Brivanib] (max concentration tested 1000 nM) in the records?
-21.6%

====

- System: normal primary NK cells, pool 2 (3 donors) (IL-2 2.5 ng/mL)
- Test Description: relative IC50 (inflection point of fitted viability curve, relative to fitted max inhibition); higher = less sensitive
- Stated Conditions: 72 h
Observable: relative IC50 (nM)
Write it as a number; the unit nM goes unstated.

Example results:
{"columns": ["Compound Structure", "Observed"],
 "data": [
  ["CC(C)[C@H](C(=O)Nc1ccc(C(=O)NO)cc1)c1ccccc1", 430],
  ["COC[C@H](NC(=O)c1cnc(C)s1)C(=O)N[C@@H](COC)C(=O)N[C@@H](Cc1ccccc1)C(=O)[C@@]1(C)CO1", 17.9],
  ["CN[C@@H](C)C(=O)N[C@H]1CN(C(=O)CC(C)C)CC[C@H]2CC[C@@H](C(=O)NC(c3ccccc3)c3ccccc3)N2C1=O", 1410],
  ["C[C@@H]1C[C@H]2[C@@H]3CCC4=CC(=O)C=C[C@]4(C)[C@@]3(F)[C@@H](O)C[C@]2(C)[C@@]1(O)C(=O)CO", 11.8],
  ["O=C(O)CCCc1ccc(N(CCCl)CCCl)cc1", 2960]
]}

Could you now consider this next compound?
GET /values?readout=relative IC50&item= "O=C(CCCCCCC(=O)Nc1ccccc1)NO"
1100

====

Each item that follows carries a reported relative IC50.
- Tested on: normal primary NK cells, pool 1 (3 donors), resting (IL-2 0 ng/mL)
- Test Description: relative IC50 (inflection point of fitted viability curve, relative to fitted max inhibition); higher = less sensitive
- Stated Conditions: 72 h
All answers are understood in µM, so give the number only.

Solved cases (3 shown):
{"columns": ["Compound", "Subject Of Test", "Observable", "Observed"],
 "data": [
  ["CC(C)n1cnc2c(NCCc3ccc(O)cc3)nc(-c3csc4ccccc34)nc21 [StemRegenin 1]", "normal primary NK cells, pool 1 (3 donors), resting (IL-2 0 ng/mL)", "relative IC50", 1.9],
  ["CN[C@@H](C)C(=O)N[C@H]1CN(C(=O)CC(C)C)CC[C@H]2CC[C@@H](C(=O)NC(c3ccccc3)c3ccccc3)N2C1=O [AT-406]", "normal primary NK cells, pool 1 (3 donors), resting (IL-2 0 ng/mL)", "relative IC50", 1.25],
  ["COc1cc([C@@H]2c3cc4c(cc3[C@@H](O[C@@H]3O[C@@H]5CO[C@@H](C)O[C@H]5[C@H](O)[C@H]3O)[C@H]3COC(=O)[C@H]23)OCO4)cc(OC)c1O [Etoposide]", "normal primary NK cells, pool 1 (3 donors), resting (IL-2 0 ng/mL)", "relative IC50", 0.743]
]}

Look up relative IC50 for this compound: COc1cc(OC)c(/C=C/S(=O)(=O)Cc2ccc(OC)c(NCC(=O)O)c2)c(OC)c1 [Rigosertib]
0.84

Find the recorded relative IC50 belonging to CCN(CC)CCOc1ccc(C(=C(Cl)c2ccccc2)c2ccccc2)cc1 [Clomifene] and report it.
2.17

Need relative IC50 of CC[C@H](CC#N)OC(=O)N[C@@H](C)c1cccc(NC(=O)Nc2ccc(-c3cnco3)c(OC)c2)c1 [AVN944] , thanks.
2.17

====

- Tested on: normal NK cells expanded with K562-aAPC
- Test Description: percent inhibition of viability; higher = more inhibition
- Stated Conditions: 72 h; IL-2 2.5 ng/mL; 1000 nM
Observable: percent inhibition of viability (%)
Give your result in % as a bare value.

{"columns": ["Compound", "Subject Of Test", "Unit Name", "percent inhibition of viability"],
 "data": [
  ["O=C(O)c1ccc(-c2c[nH]c3ncc(-c4ccccc4)cc23)cc1C1CCCC1 (max concentration tested 10000 nM)", "normal NK cells expanded with K562-aAPC", "%", 14.6],
  ["Cc1cc(Nc2nc(N[C@@H](C)c3ncc(F)cn3)ncc2Cl)[nH]n1 [AZD1480] (max concentration tested 1000 nM)", "normal NK cells expanded with K562-aAPC", "%", 95.5]
]}

Turning now to a further compound:
Bench note: what percent inhibition of viability did CO[C@@H](C(=O)N1Cc2[nH]nc(NC(=O)c3ccc(N4CCN(C)CC4)cc3)c2C1)c1ccccc1 [Danusertib] (max concentration tested 10000 nM) show?
45

====

// percent inhibition of viability lookup, one value per entry
- Test system: NKL (IL-2 2.5 ng/mL)
- Test Description: percent inhibition of viability; higher = more inhibition
- Stated Conditions: 72 h; 100 nM

Solved entries (count: 3):
{"columns": ["Compound", "percent inhibition of viability"],
 "data": [
  ["O=C(O)CCCc1ccc(N(CCCl)CCCl)cc1 [Chlorambucil] (max concentration tested 10000 nM)", "-6.04%"],
  ["N#CCNC(=O)c1ccc(-c2ccnc(Nc3ccc(N4CCOCC4)cc3)n2)cc1 [Momelotinib] (max concentration tested 10000 nM)", "28.4%"],
  ["NC(=O)Nc1cc(-c2cccc(F)c2)sc1C(=O)N[C@H]1CCCNC1 [AZD7762] (max concentration tested 1000 nM)", "71.8%"]
]}

Could you now look at the following compound, please?
Which percent inhibition of viability value is on record for CS(=O)(=O)N1CCN(Cc2cc3nc(-c4cccc5[nH]ncc45)nc(N4CCOCC4)c3s2)CC1 [Pictilisib] (max concentration tested 10000 nM) ?
-0.35%

====

- Tested on: normal NK cells expanded with K562-aAPC
- Test Description: percent inhibition of viability; higher = more inhibition
- Stated Conditions: 72 h; IL-2 2.5 ng/mL; 1000 nM
The threshold is 10%. Values of percent inhibition of viability beneath it are tagged Condition met; values meeting or exceeding it are tagged Condition not met.

Solved cases below.
{"columns": ["Compound", "Cat"],
 "data": [
  ["Nc1nc(Nc2ccc3c(c2)CC[C@@H](N2CCCC2)CC3)nn1-c1cc2c(nn1)-c1ccccc1CCC2 [BGB324] (max concentration tested 10000 nM)", "Condition not met"],
  ["CCc1cnn2c(NCc3ccc[n+]([O-])c3)cc(N3CCCC[C@H]3CCO)nc12 [Dinaciclib] (max concentration tested 1000 nM)", "Condition not met"],
  ["Cc1ccc(C(=O)Nc2ccc(CN3CCN(C)CC3)c(C(F)(F)F)c2)cc1C#Cc1cnc2cccnn12 [Ponatinib] (max concentration tested 1000 nM)", "Condition not met"]
]}

Proceed to the following item.
Hello, is percent inhibition of viability of the following compound strictly smaller than 10%? CCC1(c2ccc(N)cc2)CCC(=O)NC1=O (configuration not stated) [Aminoglutethimide] (max concentration tested 10000 nM)
Condition met
